Below are GI50 values recorded for OVCAR-5 ovarian.

[
  {
    "smiles string": "NC(=O)c1cc(Br)cc(C2CCCCC2)c1O",
    "GI50": "13.9 µM"
  },
  {
    "smiles string": "O=c1nc(Nc2cccc(Cl)c2)oc2cc(Cl)oc(=O)c12",
    "GI50": "18.5 µM"
  },
  {
    "smiles string": "COc1ccc2c(Nc3ccc(NS(C)(=O)=O)cc3)c3ccccc3nc2c1",
    "GI50": "1.02 µM"
  }
]

* * *

- System: HS 578T breast
- test method notes: NCI tumour cell line growth inhibition, 48 h
TGI: recorded values

[
  {
    "molecule": "COc1ccccc1C1SCC(=O)N1c1ccc(-c2ccc(-n3c(-c4ccccc4)nc4ccccc4c3=O)cc2)cc1 (stereo not given)",
    "TGI": "> 100 µM"
  },
  {
    "molecule": "O=C(NCCC(F)(F)C(F)(F)C(F)(F)C(F)(F)F)NC1OC(CO)C(O)C(O)C1O (stereo not given)",
    "TGI": "> 100 µM"
  },
  {
    "molecule": "COc1cc2cc(C(=O)N3C[C@@H](CCl)c4c3cc(N)c3ccccc43)[nH]c2c(OC)c1OC",
    "TGI": "> 100 µM"
  },
  {
    "molecule": "C[C@]1(CO)[C@H]2CC[C@@]34C=C[C@@](CO)(CC[C@H]3[C@]2(C)CC[C@H]1O)C4",
    "TGI": "> 100 µM"
  },
  {
    "molecule": "Nc1ccc2c(c1)NCCN2",
    "TGI": "> 100 µM"
  },
  {
    "molecule": "Cc1ccsc1/C=N/Nc1cc(C)c2cccc(C)c2n1",
    "TGI": "> 100 µM"
  },
  {
    "molecule": "CC(C)[C@@H]1CC[C@@H](C)C[C@H]1OC(=O)/C=C1/C2C=CC(O2)C1C(=O)O[C@@H]1C[C@H](C)CC[C@H]1C(C)C (stereo not given in full)",
    "TGI": "> 100 µM"
  },
  {
    "molecule": "CN1C(=S)C(c2ccccc2)Sc2ccccc21 (stereo not given)",
    "TGI": "> 100 µM"
  },
  {
    "molecule": "Cc1cc(-c2[nH]c(C(=O)O)cc2I)on1",
    "TGI": "> 100 µM"
  },
  {
    "molecule": "Cc1sc(C)c(Cc2c(C)sc(C)c2CCl)c1CCl",
    "TGI": "> 100 µM"
  },
  {
    "molecule": "CCOc1cc2c(NCCCN(CCO)CCO)ncnc2c(OCC)c1OCC",
    "TGI": "> 100 µM"
  },
  {
    "molecule": "COC1CC2C=C(C)/C=C/C=C/C(=O)NC(c3ccccc3)C/C=C/CCC(O)CC(=O)C2=C1O (stereo not given)",
    "TGI": "1.91 µM"
  },
  {
    "molecule": "O=C(/C=C/c1cccc(Br)c1)c1cccs1",
    "TGI": "72.3 µM"
  },
  {
    "molecule": "O=[N+]([O-])/C(C(Cl)=C(Cl)Cl)=C1\\NCCO1",
    "TGI": "90.5 µM"
  },
  {
    "molecule": "Cc1ccnc2[nH]c(-c3cccc(Cl)c3)cc(=O)c12",
    "TGI": "> 100 µM"
  },
  {
    "molecule": "Cn1ncc2c(N)nc(N3CCCCC3)nc21",
    "TGI": "76.3 µM"
  },
  {
    "molecule": "FC(F)(F)c1ccccc1N1CCN(c2nc(-c3cccs3)nc3ccc(Br)cc23)CC1",
    "TGI": "> 100 µM"
  },
  {
    "molecule": "Cc1ccc(N=Nc2c(O)ccc3cc(S(=O)(=O)O)ccc23)c(C)c1",
    "TGI": "> 100 µM"
  },
  {
    "molecule": "CN(C)c1ccc(/C=C2\\N=C(NN)NC2=O)cc1",
    "TGI": "> 100 µM"
  },
  {
    "molecule": "COc1ccc(-c2cc(/C=C3\\C(=O)Nc4ccc(Cl)cc43)[nH]n2)cc1",
    "TGI": "22.4 µM"
  }
]

* * *

- Test system: UACC-62 melanoma
- test method notes: NCI tumour cell line growth inhibition, 48 h
Catalogue of TGI values

[
  {
    "molecule": "CCOc1ccc(/C=C(\\Cl)c2ccc(OC)c(OC)c2)cc1",
    "TGI": "> 100 µM"
  },
  {
    "molecule": "CN(C)C(N)=NC#N",
    "TGI": "> 100 µM"
  },
  {
    "molecule": "CCOC(=O)/C(=C\\c1ccc(N(C)C)cc1)S(=O)(=O)C(F)(F)C(F)(F)C(F)(F)C(F)(F)F",
    "TGI": "> 100 µM"
  },
  {
    "molecule": "CCOC(=O)C(CO)c1nc2c([nH]c1=O)c(=O)n(C)c(=O)n2C (stereo not given)",
    "TGI": "> 100 µM"
  },
  {
    "molecule": "COC(=O)c1sc(C(=O)OC)c2c1CSC2",
    "TGI": "> 100 µM"
  },
  {
    "molecule": "Cc1ccc(OCC2OC(n3cnc4c(N(C)C)nc(Br)nc43)CC2Oc2ccc(C)cc2)cc1 (stereo not given)",
    "TGI": "> 100 µM"
  },
  {
    "molecule": "COc1ccc2cc1Oc1ccc(cc1)C(Sc1ccccc1)CCOC(=O)CC2 (stereo not given)",
    "TGI": "> 100 µM"
  },
  {
    "molecule": "N=C(N=C(N)N)N1CCN(c2ccncc2)CC1",
    "TGI": "> 1000 µM"
  },
  {
    "molecule": "O=[N+]([O-])c1ccc(N/N=C/c2c(O)ccc3ccccc23)nc1",
    "TGI": "> 100 µM"
  },
  {
    "molecule": "C=CC1ON(Cc2ccccc2)CCc2cc(OC)c(OC)cc21 (stereo not given)",
    "TGI": "> 100 µM"
  },
  {
    "molecule": "CCOC(=O)Oc1cc2c(c(OC)c1OC)-c1ccc(SC)c(=O)cc1C(NC(=O)C(F)(F)F)CC2 (stereo not given)",
    "TGI": "> 100 µM"
  },
  {
    "molecule": "CN(C)c1nc(NC23CC4CC(CC(C4)C2)C3)nc(N(C)C)n1",
    "TGI": "> 76.1 µM"
  },
  {
    "molecule": "CCOC(=O)C(Cc1c[nH]c2ccc(N(CCCl)CCCl)cc12)(NC(C)=O)C(=O)OCC",
    "TGI": "26 µM"
  },
  {
    "molecule": "Nc1ccc(S(=O)(=O)C23CC4CC(CC(C4)C2)C3)cc1",
    "TGI": "> 100 µM"
  },
  {
    "molecule": "O=C(CN1CCN(Cc2ccccc2)CC1)N1CCCn2c1nc1ccccc1c2=O",
    "TGI": "> 100 µM"
  },
  {
    "molecule": "COc1ccc(N2C(=Nc3ccccc3)SC(=N/S(=O)(=O)c3ccccc3)/C2=N\\S(=O)(=O)c2ccccc2)cc1",
    "TGI": "19.8 µM"
  },
  {
    "molecule": "CCOC(=O)c1c(Br)c(-c2ccc(Br)cc2)c(Br)n1C",
    "TGI": "> 100 µM"
  },
  {
    "molecule": "CN(CN1C(=O)C2Cc3ccccc3CN2C1=O)c1ccccn1 (stereo not given)",
    "TGI": "> 100 µM"
  },
  {
    "molecule": "Clc1ccc2[nH]cc(-c3nc(-c4c[nH]c5ncccc45)cs3)c2c1",
    "TGI": "16.5 µM"
  },
  {
    "molecule": "O=C(NCCCCCCNC(=O)n1cc(F)c(=O)[nH]c1=O)NCCCOCCOCCCNC(=O)C(O)C(O)C(O)C(O)CO (stereo not given)",
    "TGI": "> 2.5 µM"
  },
  {
    "molecule": "CCC1C(c2cccc(OC)c2O)c2cc3c(cc2OC1N1CCCC1)OCO3 (stereo not given)",
    "TGI": "65.9 µM"
  },
  {
    "molecule": "Cc1cc(C)c(C[N+](C)(C)C)c(C)c1C",
    "TGI": "18.9 µM"
  },
  {
    "molecule": "COc1cc(C2SCC(=O)N2c2ccc(-n3c(-c4ccccc4)nc4ccccc4c3=O)cc2)ccc1O (stereo not given)",
    "TGI": "> 100 µM"
  },
  {
    "molecule": "CC1=C[C@H]2c3c(c(O)c(O)c4oc5ccccc5c(=O)c34)[C@H](c3cc(O)c(O)c4oc5ccccc5c(=O)c34)[C@H]2C(C)(C)C1",
    "TGI": "2.33 µM"
  },
  {
    "molecule": "COc1c(C(=O)O)oc2c(OC)cccc12",
    "TGI": "> 100 µM"
  },
  {
    "molecule": "[Se]=P(c1ccccc1)(c1ccccc1)c1ccc(C(c2ccccc2)=P(c2ccccc2)(c2ccccc2)c2ccccc2)cc1",
    "TGI": "3.85 µM"
  },
  {
    "molecule": "COC(=O)C(CCc1ccccc1I)C1=CCC2(CC1)OCCO2 (stereo not given)",
    "TGI": "> 100 µM"
  },
  {
    "molecule": "c1ccc(-c2sc(-c3cccs3)cc2Cc2cccs2)cc1",
    "TGI": "> 10 µM"
  },
  {
    "molecule": "O=C(c1ccc2ncc(-c3nc(NC4CC4)ncc3F)n2c1)N1CCOCC1",
    "TGI": "3.6 µM"
  },
  {
    "molecule": "O=C(Nc1c[nH]c(=O)[nH]c1=O)C(Cl)Cl",
    "TGI": "> 100 µM"
  },
  {
    "molecule": "Cc1nc2ccc(Nc3nc(NCCN4CCOCC4)nc(Nc4ccc(F)cc4)n3)cc2n1Cc1ccccc1",
    "TGI": "6.18 µM"
  },
  {
    "molecule": "Cn1c(=O)nc2n(-c3cccc(F)c3)c3ccccc3nc-2c1=O",
    "TGI": "13 µM"
  },
  {
    "molecule": "O=c1[nH]nc(-c2ccccc2)n1/N=C/c1c[nH]c2ccccc12",
    "TGI": "> 100 µM"
  },
  {
    "molecule": "O=c1nc(Nc2cccc(Cl)c2)oc2cc(Cl)oc(=O)c12",
    "TGI": "21.3 µM"
  },
  {
    "molecule": "C=C1C(=O)O[C@H]2[C@H]1CC/C(COC(=O)NCc1ccc(Cn3c(=O)sn(CCCCl)c3=O)cc1)=C\\CC[C@@]1(C)O[C@@H]21",
    "TGI": "2.8 µM"
  }
]

Taken from PubChem BioAssay (NCI).
